molecular target: AGO2-MID (Homo sapiens); construct: MID domain, residues 432-578; expressed in E. coli BL21(DE3)pLysS as His6-SUMO-TEV fusion (pCold I), His6-SUMO cleaved with proTEV; assay: isothermal titration calorimetry; format: binding; conditions: read-out: Ka (× 10^3 M^-1) (converted)
Sequence (Q9UKV8 432-578): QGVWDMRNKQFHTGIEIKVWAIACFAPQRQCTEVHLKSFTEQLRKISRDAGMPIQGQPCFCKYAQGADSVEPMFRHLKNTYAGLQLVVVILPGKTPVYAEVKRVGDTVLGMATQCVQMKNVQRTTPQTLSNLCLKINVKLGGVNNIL
quantityKind: Kd (µM)

Nc1ncnc2c1ncn2CC(=O)N[C@H](CO)COP(=O)(O)OC[C@H](COP(=O)(O)O)NC(=O)Cn1cnc2c(N)ncnc21	169

P: Nc1ncnc2c1ncn2CC(=O)N[C@@H](COP(=O)(O)O)COP(=O)(O)OC[C@H]1O[C@@H](n2cnc3c(N)ncnc32)[C@H](O)[C@@H]1O
Q: Nc1ncnc2c1ncn2[C@@H]1O[C@H](COP(=O)(O)O[C@H]2[C@@H](O)[C@H](n3cnc4c(N)ncnc43)O[C@@H]2COP(=O)(O)O)[C@@H](O)[C@H]1O
Kindly compare P with Q and tell me which has the lower Kd figure. Reply with the label of the item you choose. Q
(Q: 4.35 µM, P: 139 µM)
